TARGET_OR_TEST_SYSTEM: T1, integrin αVβ5 (UniProt P06756 31-992; P18084 24-719)
T1 construct: Coated on the ELISA plate
T1 sequence (P06756 31-992, chain 1 of 2): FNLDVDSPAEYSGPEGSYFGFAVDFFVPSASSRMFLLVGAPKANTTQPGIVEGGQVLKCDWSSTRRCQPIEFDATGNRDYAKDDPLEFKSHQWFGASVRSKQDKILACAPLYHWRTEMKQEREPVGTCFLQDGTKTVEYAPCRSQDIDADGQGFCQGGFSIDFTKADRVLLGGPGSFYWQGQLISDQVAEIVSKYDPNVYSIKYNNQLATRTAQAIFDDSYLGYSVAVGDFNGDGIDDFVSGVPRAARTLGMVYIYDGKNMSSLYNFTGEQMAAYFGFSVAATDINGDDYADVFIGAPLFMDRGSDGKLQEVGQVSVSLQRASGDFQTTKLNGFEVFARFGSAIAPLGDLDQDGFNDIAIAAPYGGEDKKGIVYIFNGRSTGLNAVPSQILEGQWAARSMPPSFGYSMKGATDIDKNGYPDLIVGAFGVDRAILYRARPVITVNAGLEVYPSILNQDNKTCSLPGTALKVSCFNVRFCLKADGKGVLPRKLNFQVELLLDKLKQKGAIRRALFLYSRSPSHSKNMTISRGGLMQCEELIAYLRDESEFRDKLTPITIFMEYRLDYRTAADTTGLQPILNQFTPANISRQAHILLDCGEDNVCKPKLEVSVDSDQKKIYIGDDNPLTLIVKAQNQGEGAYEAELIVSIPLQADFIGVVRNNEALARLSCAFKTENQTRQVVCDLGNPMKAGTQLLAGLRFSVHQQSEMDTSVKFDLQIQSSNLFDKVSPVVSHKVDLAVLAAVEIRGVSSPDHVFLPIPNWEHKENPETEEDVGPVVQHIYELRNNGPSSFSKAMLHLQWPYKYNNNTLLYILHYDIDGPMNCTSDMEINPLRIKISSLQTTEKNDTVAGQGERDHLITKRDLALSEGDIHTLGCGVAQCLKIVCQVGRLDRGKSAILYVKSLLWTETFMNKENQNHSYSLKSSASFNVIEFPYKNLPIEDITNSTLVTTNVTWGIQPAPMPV
T1 sequence (P18084 24-719, chain 2 of 2): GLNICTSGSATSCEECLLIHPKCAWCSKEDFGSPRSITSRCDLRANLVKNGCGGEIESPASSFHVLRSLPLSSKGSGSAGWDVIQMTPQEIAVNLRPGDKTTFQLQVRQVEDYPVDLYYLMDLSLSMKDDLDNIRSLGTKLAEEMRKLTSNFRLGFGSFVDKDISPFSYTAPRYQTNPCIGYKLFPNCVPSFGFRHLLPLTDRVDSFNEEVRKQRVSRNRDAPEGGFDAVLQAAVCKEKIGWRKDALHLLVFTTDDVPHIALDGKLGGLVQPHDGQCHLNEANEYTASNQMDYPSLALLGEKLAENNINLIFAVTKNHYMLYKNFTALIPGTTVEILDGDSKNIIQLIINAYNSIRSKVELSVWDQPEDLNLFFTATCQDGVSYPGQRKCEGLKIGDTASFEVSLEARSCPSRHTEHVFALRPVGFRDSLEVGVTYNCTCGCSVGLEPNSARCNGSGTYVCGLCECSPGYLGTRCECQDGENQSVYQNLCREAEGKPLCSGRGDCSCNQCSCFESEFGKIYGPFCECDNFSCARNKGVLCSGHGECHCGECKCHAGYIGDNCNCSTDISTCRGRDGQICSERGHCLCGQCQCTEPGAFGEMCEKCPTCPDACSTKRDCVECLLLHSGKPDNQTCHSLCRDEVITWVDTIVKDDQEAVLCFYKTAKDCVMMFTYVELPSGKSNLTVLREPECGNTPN
ASSAY_OVERVIEW: phage ELISA, integrin coated, anti-M13-HRP
Each record here notes measured signal.
Quick reminder: number only, in OD, skip the unit.

Previously resolved entries follow.
M13 phage pKK103 displaying MICA α3 domain with extended loop 5.3sp in loop 1 (designed binder, not shown: large carriers) TVPPMVNVTSGGSGGGSHLARGDDLTYSGGSGGGVTCRASGFYPWNITLSWRQDGVSLSHDTQQWGDVLPDGNGTYQTWVATRICQGEEQRFTCYMEHSGNHSTHPVPSGK ... 0.491
M13 phage pKK109 displaying MICA α3 domain with tight T-3.3 in loop 1 (designed binder, not shown: large carriers) TVPPMVNRVPRGDSDLTCRASGFYPWNITLSWRQDGVSLSHDTQQWGDVLPDGNGTYQTWVATRICQGEEQRFTCYMEHSGNHSTHPVPSGK ... 0.167
M13 phage pKK91 displaying MICA α3 domain with His10sp in loop 3 (designed binder, not shown: large carriers) TVPPMVNVTRSEASEGNITVTCRASGFYPWNITLSWRQDGVSLSHDTQQWGDVLPDGNGTYQTWVATRISGGSGGGSHHHHHHHHHHSGGSGGGCYMEHSGNHSTHPVPSGK ... 0.078

Now consider a different binder.
q: Name the recorded signal for M13 phage pKK105 displaying MICA α3 domain with extended loop 3.3sp in loop 3 (designed binder, not shown: large carriers) TVPPMVNVTRSEASEGNITVTCRASGFYPWNITLSWRQDGVSLSHDTQQWGDVLPDGNGTYQTWVATRISGGSGGGSRVPRGDSDLTSGGSGGGCYMEHSGNHSTHPVPSGK .
a: 1.11
